experimentalTarget: Solute carrier family 2, facilitated glucose transporter member 1 (Homo sapiens) (UniProt P11166)
Sequence (P11166 whole entry): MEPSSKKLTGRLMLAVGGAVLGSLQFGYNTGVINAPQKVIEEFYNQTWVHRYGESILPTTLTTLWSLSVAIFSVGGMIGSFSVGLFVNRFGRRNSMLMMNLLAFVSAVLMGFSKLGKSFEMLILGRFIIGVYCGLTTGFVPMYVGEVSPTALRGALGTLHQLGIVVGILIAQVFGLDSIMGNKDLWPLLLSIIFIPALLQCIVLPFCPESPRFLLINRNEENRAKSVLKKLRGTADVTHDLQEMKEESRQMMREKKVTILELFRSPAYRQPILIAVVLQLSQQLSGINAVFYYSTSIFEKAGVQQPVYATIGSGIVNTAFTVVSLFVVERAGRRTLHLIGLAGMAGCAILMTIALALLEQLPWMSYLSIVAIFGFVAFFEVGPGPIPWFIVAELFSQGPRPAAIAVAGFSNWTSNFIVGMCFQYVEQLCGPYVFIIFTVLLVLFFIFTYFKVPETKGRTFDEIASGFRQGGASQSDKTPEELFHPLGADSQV
experimentDescription: ST_JUDE_LEISH: Cytotoxicity at 2uM final concentration against transgenic Leishmania Mexicana promastigotes LmGLUT1 that are glucose transport deficient and complemented with the human glucose transporter GLUT1. Activity is measured by DNA content using SYBR green in vitro
Format: functional
Readings of inhibition for the listed molecules
Answer in %, number only, no unit symbol.

See these solved cases before continuing.
| molecule | readoutUnits | inhibition |
| --- | --- | --- |
| O=C(c1cc(-c2ccco2)n[nH]1)N1CCN(S(=O)(=O)c2ccc(Br)cc2)CC1 | % | 10.8 |
| CN(C)C(=S)N/N=C1/C(=O)Nc2ccccc21 | % | 3.54 |

Lab note: next molecule to report on.
*Q* Look up inhibition for this molecule: CCNc1cc(C(=O)N[C@@H](Cc2ccccc2)[C@H](O)CNC2CCC(C(C)(C)C)CC2)cc(N2CCCC2=O)c1 (stereo partly drawn)
*A* 0.78

----------
experimentalTarget: Hexose transporter 1 (Plasmodium falciparum) (UniProt O97467)
experimentDescription: ST_JUDE_LEISH: Cytotoxicity at 2uM final concentration against transgenic Leishmania Mexicana promastigotes LmPfHT that are glucose transport deficient and complemented with the Plasmodium falciparum hexose transporter. Activity is measured by DNA content using SYBR green in vitro
Type: functional
measurementKind: inhibition (%)
Answer in %, number only, no unit symbol.

| molecule | experimentalTarget | inhibition (%) |
| --- | --- | --- |
| O=C(NCc1ccccc1)OC1CNCCC1c1ccc(C(O)Cc2ccccc2)cc1 (stereo not drawn) | Hexose transporter 1 (Plasmodium falciparum) (UniProt O97467) | 1.62 |
| CCN1CCN(c2ccc(NC(=O)c3cc4c(C)nn(-c5ccccc5)c4s3)cc2C)CC1 | Hexose transporter 1 (Plasmodium falciparum) (UniProt O97467) | 3.9 |

Lab note: next molecule to report on.
*Q* Look up inhibition for this molecule: CC(=O)c1c[nH]c2ccc(/C=C/C(=O)NC3CCC(CCN4CCc5ccc(C#N)cc5CC4)CC3)cc12 (stereo not drawn)
*A* 14.9

----------
experimentalTarget: Hexose transporter 1 (Plasmodium falciparum) (UniProt O97467)
experimentDescription: ST_JUDE_LEISH: Cytotoxicity at 2uM final concentration against transgenic Leishmania Mexicana promastigotes LmPfHT that are glucose transport deficient and complemented with the Plasmodium falciparum hexose transporter. Activity is measured by DNA content using SYBR green in vitro
Assay type: functional
measurementKind: inhibition (%)
Answer in %, number only, no unit symbol.

| compound | inhibition, % |
| --- | --- |
| O=C(c1ccco1)c1cn(CCOc2ccccc2)c2ccccc12 | 1.5 |
| COc1ccc2nccc(N3CCC(CCNCc4cc5c(cn4)OCCO5)CC3)c2n1 | 0.24 |
| CC(Cc1ccc(NC(=O)c2ccc(CNCc3ccccc3)cc2)cc1)N(CCc1cccc(Cl)c1)C(=O)OC(C)(C)C (centres undefined) | 4.74 |
| C=CCOC(=O)N1CCC(CNCc2ccc(-c3ccc(-c4nc5ccccc5[nH]4)s3)cc2)C1 (centres undefined) | 6.02 |
| CCc1cc(Cc2cnc(N)nc2N)cc(CC)c1OC | 0.46 |

*Q* Look up inhibition for this compound: "COCCCN=C(S)NN=C(C)c1ccccn1"
*A* -0.03

*Q* Look up inhibition for this compound: "FC(F)(F)c1ccc(CNC2CCN(CC3CCCCC3)CC2)cc1"
*A* 7.71

*Q* Look up inhibition for this compound: "c1ccc2c(c1)CN(CC1CCOCC1)CC1(CCN(Cc3c[nH]c4cnccc34)CC1)O2"
*A* 1.23

*Q* Look up inhibition for this compound: "CC(C)C[C@H]1c2[nH]c3ccc(Cl)cc3c2CCN1C(=O)CCc1ccccc1"
*A* 2.53
